Sourced from PubChem BioAssay (Tox21)

assay: qHTS assay to identify small molecule antagonists of the thyroid receptor (TR) signaling pathway - cell viability counter screen (AID 743064); conditions: GH3.TRE-Luc viability, CellTiter-Fluor, 24 h; series mostly up to 70.3 µM; further: nearly all actives have a fitted effect of over 50% in size
Inconclusive results are not listed. Activity calls are given as the source filed them. The call rests on the fitted dose curve; in most records, active means well fitted cell-killing curve with a large enough effect in the repeat runs; inconclusive means weak or mixed curves, or effect the other way; inactive means no such curve, though single readings can be large or run the other way.
Return exactly one item of active, inactive

compound | discrete-label
O=C(O)CC(=O)C(=O)O | inactive

Query string: Outcome? `CC(=O)c1ccc2c(c1)N(CCCN(C)C)c1ccccc1S2`
Result string: active

Query string: What would you report for `NCC(=O)O` ?
Result string: inactive

Query string: What would you report for `CCCCOC(=O)CCCCCCCC(=O)OCCCC` ?
Result string: inactive

Query string: What would you report for `Cc1cc(C(=O)O)ccc1[N+](=O)[O-]` ?
Result string: inactive

Query string: What would you report for `CN1CCC(N(Cc2cccs2)c2ccccc2)CC1` ?
Result string: active

Query string: What would you report for `COC(=O)c1ccc(I)cc1S(=O)(=O)NC(=O)Nc1nc(C)nc(OC)n1` ?
Result string: inactive

Query string: What would you report for `CCCCCCCN` ?
Result string: inactive

Query string: What would you report for CCCCC/C=C\C/C=C\CCCCCCCC(=O)NC(C)c1ccccc1 (configuration not stated) ?
Result string: inactive

====

test: qHTS assay to identify small molecule agonists of the endoplasmic reticulum stress response signaling pathway (AID 1159516); settings: ESRE-bla HeLa, ER stress beta-lactamase reporter, 5 h; series mostly up to 61 µM
Results filed as inconclusive are left out. Calls of active or inactive are those of the source. The call rests on the fitted dose curve; in most records, active means well fitted activation curve with a large enough effect in the signal ratio in the repeat runs (not every such curve was filed as active); inconclusive means weak or mixed curves, or effect the other way; inactive means flat fitted curve, though single readings scatter; the % refers to the signal ratio.
assay-readout: activation

Example molecules with recorded activation:
molecule | observed-measurement
C[N+](C)(C)CCOC(=O)CCC(=O)OCC[N+](C)(C)C | inactive
COc1cccc(N(C)C(=S)Oc2ccc3c(c2)CCCC3)n1 | inactive
CCCCC(CC)COC(=O)COc1ccc(Cl)cc1Cl (configuration not stated) | inactive
O=C(O)CC(=O)C(=O)O | inactive
Cc1ccccc1S(=O)(=O)O | inactive
N=c1ccn2c(n1)O[C@H]1[C@H](O)[C@@H](CO)O[C@H]12 | inactive
CCOC(=O)Cc1cccc2ccccc12 | inactive
O=C1OC(CN2CCOCC2)CN1/N=C/c1ccc([N+](=O)[O-])o1 (configuration not stated) | inactive

Query string: Name the reported activation value associated with the molecule CC[N+](C)(CC)CCOC(=O)C(O)(c1ccccc1)C1CCCCC1 (configuration not stated)
Result string: inactive

Query string: What would you report for O=C(O)C(S)C(S)C(=O)O (configuration not stated) ?
Result string: inactive

Query string: What would you report for `CCOc1ccc(N=Nc2ccc(/C=C/c3ccc(N=Nc4ccc(OCC)cc4)cc3S(=O)(=O)O)c(S(=O)(=O)O)c2)cc1` ?
Result string: inactive

Query string: What would you report for `O=C(O)c1ccccc1Cl` ?
Result string: inactive

====

In this section, each of the molecules is paired with its reported Potency.
Assay: qHTS assay to identify small molecule antagonists of the estrogen receptor alpha (ER-alpha) signaling pathway using the BG1 cell line in the presence of 0.1 nM 17-beta-estradiol - cell viability counter screen (AID 1259241); further: potency means the concentration at half of the fitted maximal effect; nearly all actives have a fitted effect of over 40% in size
Settings: VM7Luc4E2 (BG1) viability, CellTiter-Fluor protease, 22 h, 0.1 nM estradiol agonist added; series mostly up to 92.4 µM
From the text: National Center for Advancing Translational Sciences [NCATS] NIH Chemical Genomics Center [NCGC] U.S. Environmental Protection Agency [EPA] National Institutes of Environmental Health Sciences [NIEHS] National Toxicology Program [NTP] U.S. Food and Drug Administration [FDA] Estrogen receptor (ER), a member of the nuclear hormone receptor plays an important role in development, metabolic homeostasis and reproduction. […]
Results filed as inconclusive are left out. Active and inactive are the calls of the source. The call rests on the fitted dose curve; in most records, active means well fitted cell-killing curve with a large enough effect in the repeat runs; inconclusive means weak or mixed curves, or effect the other way; inactive means flat fitted curve, though single readings scatter.

smiles-record | Potency
CCCCCCCCCc1ccc(OCCOCCO)cc1 | 8.1 µM (active)

Query string: Name the reported Potency value associated with the molecule `Nc1ccc(N)c2c1C(=O)c1ccccc1C2=O`
Result string: 12.2 µM (active)

Query string: What would you report for `CCOc1ccc(N=Nc2ccc(/C=C/c3ccc(N=Nc4ccc(OCC)cc4)cc3S(=O)(=O)O)c(S(=O)(=O)O)c2)cc1` ?
Result string: 24 µM (active)

Query string: What would you report for `C=CC(=O)OCCOCCOC(=O)C=C` ?
Result string: 61.4 µM (active)
